- Tested on: Enterococcus sp.
- experimental protocol: In vitro antibacterial evaluation: minimum inhibitory concentration (MIC), broth dilution method
- Format: cell-based
- condition context: broth dilution, 18 hours at 35° C.
reported property: MIC Enterococcus faecium (GC 4556) (µg/mL)
Give bare numbers, in µg/mL.

-- ask Test system Enterococcus sp.; read-out MIC Enterococcus faecium (GC 4556); what value for CC(c1ccccc1)C1NC(=O)CNC(=O)C(CO)NC(=O)C(C(O)C2CNC(=N)N2C2OC(CO)C(O)C(O)C2O)NC(=O)C(C(O)C2CNC(=N)N2)NC(=O)C(Cc2ccc3oc(SCc4ccc5ccccc5c4)nc3c2)NC1=O (stereo not shown) [Example 46] ?
-- reply 16

Go through the items and report each one's MIC Enterococcus faecium (GC 4556).
1. CC(c1ccccc1)C1NC(=O)CNC(=O)C(CO)NC(=O)C(C(O)C2CNC(=N)N2C2OC(CO)C(O)C(O)C2O)NC(=O)C(C(O)C2CNC(=N)N2)NC(=O)C(Cc2ccc3oc(SCc4ccccc4)nc3c2)NC1=O (stereo not shown) [Example 45]
2. CC(c1ccccc1)C1NC(=O)CNC(=O)C(CO)NC(=O)C(C(O)C2CNC(=N)N2C2OC(CO)C(O)C(O)C2O)NC(=O)C(C(O)C2CNC(=N)N2)NC(=O)C(Cc2ccc3oc(-c4ccc(Br)cc4)nc3c2)NC1=O (stereo not shown) [Example 27]
3. CC(c1ccccc1)C1NC(=O)CNC(=O)C(CO)NC(=O)C(CC2CNC(=N)N2C2OC(CO)C(O)C(O)C2O)NC(=O)C(CC2CNC(=N)N2)NC(=O)C(Cc2ccc3oc(-c4ccc5c(c4)Cc4ccccc4-5)nc3c2)NC1=O (stereo not shown) [Example 42]

-- reply
[32, 64, 16]

###

Exercise: state measured MIC Enterococcus faecalis (GC 2691) for each of the compounds provided.
- Test system: Enterococcus sp.
- experimental protocol: In vitro antibacterial evaluation: minimum inhibitory concentration (MIC), broth dilution method
- Type: cell-based
- condition context: broth dilution, 18 hours at 35° C.
Answers are plain numbers, in µg/mL.

-- ask Can you look up MIC Enterococcus faecalis (GC 2691) on Enterococcus sp. for CC(c1ccccc1)C1NC(=O)CNC(=O)C(CO)NC(=O)C(C(O)C2CNC(=N)N2C2OC(CO)C(O)C(O)C2O)NC(=O)C(C(O)C2CNC(=N)N2)NC(=O)C(Cc2ccc3oc(C=C(c4ccccc4)c4ccccc4)nc3c2)NC1=O (centres unmarked) [Example 39] ?
-- reply 16

For each of the compounds below, note its MIC Enterococcus faecalis (GC 2691).
1. CC(c1ccccc1)C1NC(=O)CNC(=O)C(CO)NC(=O)C(C(O)C2CNC(=N)N2C2OC(CO)C(O)C(O)C2O)NC(=O)C(C(O)C2CNC(=N)N2)NC(=O)C(Cc2ccc3oc(-c4ccc(C(C)(C)C)cc4)nc3c2)NC1=O (centres unmarked) [Example 32]
2. CC(c1ccccc1)C1NC(=O)CNC(=O)C(CO)NC(=O)C(C(O)C2CNC(=N)N2C2OC(CO)C(O)C(O)C2O)NC(=O)C(C(O)C2CNC(=N)N2)NC(=O)C(Cc2ccc3oc(SCc4ccc(-c5ccccc5)cc4)nc3c2)NC1=O (centres unmarked) [Example 47]
3. COc1cc(-c2nc3cc(CC4NC(=O)C(C(C)c5ccccc5)NC(=O)CNC(=O)C(CO)NC(=O)C(C(O)C5CNC(=N)N5C5OC(CO)C(O)C(O)C5O)NC(=O)C(C(O)C5CNC(=N)N5)NC4=O)ccc3o2)cc(OC)c1OC (centres unmarked) [Example 34]

-- reply
8
32
32
